Origin of the recorded values: patent US20210309735A1

Reported kon by item:
# Target or test system: T1, human IL-17A (human, UniProt Q16552 20-155, limits assumed)
# T1 construct: Bought from R&D Systems; also called IL-17 antigen (human IL17A)
# T1 sequence (looked up): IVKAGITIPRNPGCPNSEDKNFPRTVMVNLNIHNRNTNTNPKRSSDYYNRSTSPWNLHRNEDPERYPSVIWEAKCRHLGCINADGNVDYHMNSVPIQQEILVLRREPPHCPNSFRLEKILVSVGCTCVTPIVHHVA
# Experimental protocol: BLI (Octet Red96), antibody captured on AHC biosensor, human IL-17A in solution, 1:1 model, 25 C
Measurement kind: kon (M⁻¹ s⁻¹)

Binder	Measurement kind	Numeric result
PP10759 (antibody, human IgG4 S228P, kappa, V domains shown, expressed in HEK293; also called chimeric antibody PP10759; chimeric parental antibody) VH: EVQLVESGGGLVQPGGSLKLSCVASGFTFSTYGMSWVRQTPDKRLELVAIINHNGGSTFYPDSVKGRFTVSRDNAKNTLHLQMSSLKSEDTAMYYCARDPRHDGYFFDYWGQGTTLTVSS VL: DIQMTQSSPSFSVSLGDRVTITCKASEDIYDRLAWYQQKPGNAPRLLISGATSLETGIPSRFSGSRSGKDYTLDINSLQTEDAATYYCQQYWSVPWTFGGGTKLEIKR	kon	480000
PP10768 (antibody, human IgG4 S228P, kappa, V domains shown, Humanized, human IgG4/kappa; also called VH6667/VL6667) VH: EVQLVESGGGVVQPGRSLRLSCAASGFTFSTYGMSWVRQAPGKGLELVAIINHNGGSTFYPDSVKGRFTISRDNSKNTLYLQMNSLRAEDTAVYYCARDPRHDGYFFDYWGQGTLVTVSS VL: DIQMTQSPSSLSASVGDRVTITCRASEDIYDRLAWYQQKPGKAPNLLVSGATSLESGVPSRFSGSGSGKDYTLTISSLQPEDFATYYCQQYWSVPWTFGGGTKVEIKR	kon	370000
